The following molecules are shown together with reported GI50 values.
# Test system: SW-620
# methodNotes: NCI tumour cell line growth inhibition, 48 h
Calls of active or inactive are those of the source. Cut-off read from the data, not from the text of the source: active = GI50 up to about 1.1 µM and inactive = higher.

molecule | GI50
Cc1cc(S(=O)(=O)Nc2nncn2-c2ccc(Cl)cc2)c(S)cc1Cl | > 10 µM (inactive)
C#CCOC(=O)C(=[N+]=[N-])C(=O)CC(C)C | > 10 µM (inactive)
C=C(Br)N(CC)CC | > 100 µM (inactive)
C[C@@H](CO)C1=C(O)C(=O)c2c(ccc3c2CCCC3(C)C)C1=O | 28.3 µM (inactive)

stdin: Can you share its GI50? I mean this molecule: CC1(C)CC(=O)C2(CC(CSc3ccccc3)C(CS(=O)(=O)c3ccccc3)C2)C(=O)C1 (stereo unspecified)
stdout: > 100 µM (inactive)

stdin: Can you share its GI50? I mean this molecule: CCOC(=O)C1=C(c2ccccc2)N(C)c2ccccc2S1
stdout: 44.4 µM (inactive)
